Assay: Kinetic (aqueous) solubility in pH 7.4 DPBS, UV quantification
Conditions: pH 7.4 DPBS, 4 hours, room temperature (25° C.), from 10 mM DMSO stock

MOLECULE	Solubility* (kinetic)
C[Si](C)(CCCNC(=O)COCC(=O)O)O[Si]1(O[Si](C)(C)CCCNC(=O)NCCS(=O)(=O)O)n2c3c4ccccc4c2N=C2N=C(N=c4c5ccccc5c(n41)=NC1=NC(=N3)c3ccccc31)c1ccccc12.N (stereo not shown) [Example 7]	A (≤1 μg/mL)
C[Si](C)(CCCNC(=O)COCC(=O)O)O[Si]1(O[Si](C)(C)CCCNC(=O)NCC(S(=O)(=O)O)S(=O)(=O)O)n2c3c4ccccc4c2N=C2N=C(N=c4c5ccccc5c(n41)=NC1=NC(=N3)c3ccccc31)c1ccccc12.N (stereo not shown) [Example 8]	A (≤1 μg/mL)
